Values were extracted from patent EP1215499A1.

target: miniplasmin (Homo sapiens, UniProt P00747); construct: 38kDa (Kringle 5 + L chain); the 12kDa protein of human miniplasmin includes a kringle 5 that begins with V^441; host or cells: no expression host; experiment: biochemical; format: biochemical; conditions: read-out: Relative activity
Sequence (P00747 481-560): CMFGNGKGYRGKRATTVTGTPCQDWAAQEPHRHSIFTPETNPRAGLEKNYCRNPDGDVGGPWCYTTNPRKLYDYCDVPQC
Sequence (P00747 581-810): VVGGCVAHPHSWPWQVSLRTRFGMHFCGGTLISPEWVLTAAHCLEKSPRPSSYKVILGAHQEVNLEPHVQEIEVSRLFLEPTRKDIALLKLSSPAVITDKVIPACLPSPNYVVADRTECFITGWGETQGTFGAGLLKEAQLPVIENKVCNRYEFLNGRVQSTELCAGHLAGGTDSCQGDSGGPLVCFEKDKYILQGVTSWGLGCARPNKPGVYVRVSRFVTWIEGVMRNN
Where a SMILES comes first, the peptide text is derived from it. [ ]: non-standard residue; d: D form. The star is where a group is joined. Sta = CC(C)C[C@H](N)[C@@H](O)CC(=O)O; Isovaleryl = CC(C)CC(=O)*
measured-endpoint: activity at 10 µM (%)
Just the number please, in %, no unit attached.

Here's what some known entries look like.
input: Which measured activity at 10 µM belongs to CC(C)CC(NC(=O)C1OC1C(=O)O)C(=O)NCCCCNC(=N)N (stereo not shown) [E-64] , tested on miniplasmin (Homo sapiens, UniProt P00747)?
output: 61.5

input: Which measured activity at 10 µM belongs to N=C(N)c1ccccc1 [Benzamidine] , tested on miniplasmin (Homo sapiens, UniProt P00747)?
output: 67.6

input: Which measured activity at 10 µM belongs to CC(C)C[C@H](NP(=O)(O)O[C@@H]1O[C@@H](C)[C@H](O)[C@@H](O)[C@H]1O)C(=O)N[C@@H](Cc1c[nH]c2ccccc12)C(=O)O [Phosphoramidon] , tested on miniplasmin (Homo sapiens, UniProt P00747)?
output: 100

input: Which measured activity at 10 µM belongs to CC(=O)N[C@@H](CC(C)C)C(=O)N[C@@H](CC(C)C)C(=O)N[C@H](C=O)CCCNC(=N)N [Leupeptin] , tested on miniplasmin (Homo sapiens, UniProt P00747)?
output: 18.6

input: Which measured activity at 10 µM belongs to CC(C)C[C@H](NC(=O)[C@@H](NC(=O)N[C@@H](Cc1ccccc1)C(=O)O)C1CCN=C(N)N1)C(=O)N[C@H](C=O)Cc1ccccc1 (stereo partly shown) [Cymostatin] , tested on miniplasmin (Homo sapiens, UniProt P00747)?
output: 100

Continuing:
input: Which measured activity at 10 µM belongs to CC(C)C[C@H](NC(=O)N[C@H](C(=O)N[C@@H](CCC(N)=O)C(=O)N[C@@H](C)C=O)[C@@H]1CCNC(=N)N1)C(=O)O [Elastatinal] , tested on miniplasmin (Homo sapiens, UniProt P00747)?
output: 69.2

input: Which measured activity at 10 µM belongs to CC(C)CC(=O)N[C@H](C(=O)N[C@H](C(=O)N[C@@H](CC(C)C)[C@@H](O)CC(=O)N[C@@H](C)C(=O)N[C@@H](CC(C)C)[C@@H](O)CC(=O)O)C(C)C)C(C)C [Pepstatin A] (Isovaleryl-VV[Sta]A[Sta]-OH) , tested on miniplasmin (Homo sapiens, UniProt P00747)?
output: 64
